tested on: M. tuberculosis Erdman strain; format: cell-based; conditions: 10 μM, 6 weeks, O.D.
attribute.measured: M. tuberculosis growth in the absence of antibiotic (in words)

substance: 5′-TGCCGCAGCCACGGCGACGGCCGTGGT (SEQ ID NO: 11) [Val 33]
test.value: inhibited

substance: 5′-TGCCGCAGCCACGGCGACGGCCGTGGTGTCCGAACC (SEQ ID NO: 12) [Val 34]
test.value: inhibited

substance: 5′-CCATGTCTTCACCGCTTCATCCTG (SEQ ID NO: 10) [Val 26]
test.value: did not inhibit

substance: 5′-CGCTTCATCCTGCCGTGTCGG (SEQ ID NO: 8) [Val 24]
test.value: did not inhibit

substance: 5′-CACCTTCGCCACGATTGGAGCCCTCCA (SEQ ID NO: 13) (phosphorothioate, further chemistry not given here; listed as Mycobacterium tuberculosis) [Val 41, PS-ODN against nucleotides −15 to 12 of the groES gene]
test.value: did not inhibit

substance: 5′-TGGGGCTGGCCATGTCTTCAC-3′ (SEQ ID NO: 7) [Val 23]
test.value: inhibited

substance: 5′-TGGCCATGTCTTCACCGCTTCATCCTG (SEQ ID NO: 9) [Val 25]
test.value: did not inhibit
